tested on: SF-539 CNS; test: NCI-60 one-dose screen, 48 h; conditions: 10 µM unless noted
Compounds without any hit were thinned out: in the full panel of roughly 83,000, 20% have a hit. The source made the active and inactive calls. The calls were made as follows: active = growth percent below 10; inactive = the rest.
In this exercise, the only acceptable responses are active, inactive

Record excerpt, results attached:
>>> category("COC(=O)c1ccc2[nH]c(O)c(C(=Nc3ccc(N(C)C(=O)CN4CCN(C)CC4)cc3)c3ccc4c(c3)OCO4)c2c1")
"active"
>>> category("CCC(C)(CC)c1ccc(O)c(C)c1")
"inactive"
>>> category("CCOc1ccc(Br)cc1/C=C(\\C#N)c1ccc([N+](=O)[O-])cc1")
"inactive"
>>> category("CCCCCCCCCCC(C[N+](C)(C)C/C=C/c1ccccc1)C(O)c1ccccc1 (stereo not given)")
"inactive"

In the following, a different molecule is considered.
Which outcome did this test record for the molecule COc1ccccc1Nc1nnc(COc2ccc(CNC(=O)CCCC/C=C/C(C)C)cc2OC)o1 ? inactive

* * *

system: SNB-19 CNS; test: NCI-60 one-dose screen, 48 h (100 = growth as untreated, 0 = no growth, -100 = all killed); details: 10 µM unless noted
The panel holds about 83,000 compounds, 20% with a hit somewhere; the sample as a whole holds those more often.
# key: entry, value: growth
Only the number, expressed in %, is required.

Observe how each entry below is paired with its result.
>>> observed("CCCCCCCCCCCCCCCCNC(=S)N/N=C/c1ccc(OC)cc1")
99.8
>>> observed("CCc1c(C)c2ccc(OCC(=O)N=Nc3c(O)[nH]c4ccccc34)c(C)c2oc1=O")
19.2
>>> observed("Nc1nc2c(c3cnccc13)C(c1cccc(Br)c1)Cc1cnccc1-2 (stereo not given)")
24
>>> observed("O=C(Nc1cccc(Cn2c(=O)[nH]c3ccc(Oc4ncccn4)cc3c2=O)c1)c1cc(Cl)cc(Cl)c1")
69.4
>>> observed("CC(O)c1cc[cH-]c1.[Fe+2].c1cc[cH-]c1 (stereo not given)")
105
>>> observed("CC1(c2ccc(Br)cc2)NC(=O)NC1=O (stereo not given)")
105

Return reported growth; argument: COc1cc(CCNc2cnc3cc(N)cc(N)c3n2)cc(OC)c1 111

Return reported growth; argument: NNC(=S)N1N=C(c2cc3ccccc3o2)CC1c1c[nH]c2ccccc12 (stereo not given) 35.5

Return reported growth; argument: CC(=O)N1N=C(c2ccc(Cl)cc2)CC1c1cn(-c2ccccc2)nc1-c1ccc([N+](=O)[O-])cc1 (stereo not given) 90.1

Return reported growth; argument: CCOC(=O)C1=C(C(F)(F)F)NC(=S)NC1CN1C(=O)c2ccccc2C1=O (stereo not given) 112

* * *

# key: entry, value: growth
test system: OVCAR-3 ovarian; assay: NCI-60 one-dose screen, 48 h (100 = growth as untreated, 0 = no growth, -100 = all killed); settings: 10 µM unless noted
This is part of a sample that, as a whole, favours compounds with a hit. Of some 83,000 tested, about 20% had one in any assay.
Only the number, expressed in %, is required.

>>> observed("CCCCN(CCCC)CC(O)CN(CC)CC (stereo not drawn)")
113
>>> observed("CCOc1nc(-c2ccccc2)cc2c(O)c(C(=O)N/N=C/c3ccccc3O)[nH]c(=O)c12")
76.7
>>> observed("COc1ccc(Oc2[nH]n(C3=Nc4ccccc4Sc4ccccc43)c(=O)c2C#N)cc1")
91.8

Return reported growth; argument: CC(O)CCC(C)[N+](=O)[O-] (stereo not drawn) 108

Return reported growth; argument: COc1cc(C(=O)Nc2ccc(N(C)C)cc2)cc(OC)c1OC 101

Return reported growth; argument: COC(=O)/C(Br)=C/c1c[nH]c2ccc(Br)cc12 82.6

Return reported growth; argument: FC(F)(F)c1cccc(-c2[nH]ncc2-c2nnnn2-c2ccccc2)c1 48.4

Return reported growth; argument: Cc1ccc(C(=O)Nc2ccc(CN3CCN(C)CC3)c(C(F)(F)F)c2)cc1C#Cc1cnc(N)c2ccc(F)cc12 -83.3

* * *

system: U251 CNS; assay: NCI-60 one-dose screen, 48 h (100 = growth as untreated, 0 = no growth, -100 = all killed); conditions: 10 µM unless noted
Compounds without any hit were thinned out: in the full panel of roughly 83,000, 20% have a hit.
measuredEndpoint: growth (%)
Only the number, expressed in %, is required.

>>> observed("NC(N)=Nc1ccc(/C=C2\\C=Cc3ccccc32)cc1")
67.8

Return reported growth; argument: O=C(/C=C1\C(=O)N(Cc2ccc([N+](=O)[O-])cc2)c2ccccc21)c1ccc(OCCN2CCCCC2)cc1 -46.5

Return reported growth; argument: COc1ccc(/C=C2\CCCC3=C2N=C2SC=NN2C3c2ccc(OC)c(OC)c2)cc1OC (stereo unspecified) 30.2

Return reported growth; argument: C/C=C(/C)C(=O)OC1C=C(CO)C(=O)C(OC(=O)C2(C)OC2C)C1C(C)C (stereo unspecified) -23.1

Return reported growth; argument: CCc1c(C)c2ccc(OCC(=O)N=Nc3c(O)[nH]c4ccccc34)c(C)c2oc1=O -70.8

Return reported growth; argument: O=C(O)c1occ(Cl)c1Cl 104

Return reported growth; argument: S=C(N/N=C/c1cc(Cl)cc(Cl)c1)NC12CC3CC(CC(C3)C1)C2 40.6

Return reported growth; argument: COc1ccc(Cn2cc3c(c2-c2ccccc2)CCc2cnoc2-3)cc1N 24.8

Return reported growth; argument: CCOC(=O)NC1=NCC(C)(C)S1 101

Return reported growth; argument: CCCCCCC(C)N(CC(C)(C)O)C(=O)c1ccc([N+](=O)[O-])cc1 (stereo unspecified) 97.4

Return reported growth; argument: CC1=NN(c2cccc(Cl)c2)C(=O)/C1=C\c1cn(-c2nc(N3CCOCC3)nc(N3CCOCC3)n2)c2ccccc12 110

* * *

test system: OVCAR-5 ovarian; assay: NCI-60 one-dose screen, 48 h (100 = growth as untreated, 0 = no growth, -100 = all killed); conditions: 10 µM unless noted
The panel holds about 83,000 compounds, 20% with a hit somewhere; the sample as a whole holds those more often.
Please mark Criterion met if the recorded growth is equal to or greater than 70%, and Criterion not met if it falls below.

Record excerpt, results attached:
>>> category("COc1ccc(/C=C2\\CCCC3=C2N=C2SC=NN2C3c2ccc(OC)c(OC)c2)cc1OC (stereo not given)")
"Criterion not met"
>>> category("COc1cc2c(c3c1c(=O)c1cccc(F)c1n3C)C=CC(C)(C)O2")
"Criterion met"
>>> category("CC(=O)OCC(=O)[C@@]1(O)[C@H](C)C[C@H]2[C@@H]3C=C(C)C4=Cc5c(cnn5-c5ccc(F)cc5)C[C@]4(C)[C@H]3[C@@H](O)C[C@@]21C")
"Criterion not met"

Reported growth at or above 70%? Nc1nc2c(c3cnccc13)C(c1cccc(Br)c1)Cc1cnccc1-2 (stereo not given) Criterion not met

Reported growth at or above 70%? CC[C@H](Nc1ncnc2nc[nH]c12)c1nc2cccc(NCc3ccc(C(=O)NO)o3)c2c(=O)n1-c1ccccc1 Criterion met

Reported growth at or above 70%? COc1ccc(NC(=O)/C=C(C)/C=C/C=C(C)/C=C/C2=C(C)CCCC2(C)C)cc1 Criterion met

Reported growth at or above 70%? CC1(C)N=C(N)N=C(N)N1c1cccc(CCCCOc2ccccc2)c1 Criterion not met

Reported growth at or above 70%? CCOC(=O)C1=C(C(F)(F)F)NC(=O)NC1CN1C(=O)c2ccccc2C1=O (stereo not given) Criterion met

Reported growth at or above 70%? COC(=O)c1cc(=O)nc(N/N=C/c2ccccc2O)s1 Criterion met

* * *

test system: NCI/ADR-RES ovarian; test: NCI-60 one-dose screen, 48 h; conditions: 10 µM unless noted
Compounds without any hit were thinned out: in the full panel of roughly 83,000, 20% have a hit. Activity calls are given as the source filed them. Rule for the calls: active = growth percent below 10; inactive = the rest.
In this exercise, the only acceptable responses are active, inactive

Record excerpt, results attached:
>>> category("Nc1ccc(S(=O)(=O)c2ccc(NO)cc2)cc1")
"inactive"
>>> category("Cc1ccc(C(=O)C(Br)C(Br)c2ccccc2)cc1 (stereo unspecified)")
"inactive"
>>> category("C=C1CCC2C3(C)COC(c4ccccc4)OC3CCC2(C)C1C/C=C1/C(=O)OCC1O (stereo unspecified)")
"inactive"

Which outcome did this test record for the compound CCOC(=O)c1c(C)oc2ncnc(Nc3ccc(C(=O)NCCc4ccccc4)cc3)c12 ? inactive

Which outcome did this test record for the compound CC(C)(C)c1ccc(OCCOC(=O)CBr)cc1 ? inactive

Which outcome did this test record for the compound COC(=O)c1cc(O)c2cc3c(cc2c1-c1cc(OC)c(OC)c(OC)c1)OCO3 ? active

* * *

test system: SK-MEL-5 melanoma; test: NCI-60 one-dose screen, 48 h; conditions: 10 µM unless noted
This is part of a sample that, as a whole, favours compounds with a hit. Of some 83,000 tested, about 20% had one in any assay. The source made the active and inactive calls. Rule for the calls: active = growth percent below 10; inactive = the rest.
In this exercise, the only acceptable responses are active, inactive

Record excerpt, results attached:
>>> category("CCCCCCN(CCCCCC)CCC(=O)Nc1ccc(S(=O)(=O)c2ccc(NC(=O)CCN(CCCCCC)CCCCCC)cc2)cc1")
"inactive"
>>> category("Cc1ccc(C(=O)C(Br)C(Br)c2ccccc2)cc1 (centres undefined)")
"inactive"
>>> category("O=c1c(N=Nc2nccs2)c(-c2ccccc2)[nH]n1-c1nc(-c2ccccc2)cs1")
"inactive"
>>> category("CC(O)CN(CC(C)O)N(CC(C)O)CC(C)O (centres undefined)")
"inactive"
>>> category("C#CCCCCCCC[C@@H]1OC(=O)[C@H]([C@@H](C)CC)NC(=O)[C@@H]([C@@H](C)CC)NC(=O)CC(=O)[C@@H]1C")
"inactive"
>>> category("C=C[C@]1(C)C=C2C(=O)[C@@]3(O)OC[C@@]4(CCCC(C)(C)C43O)C2(O)C(O)C1 (some centres undefined)")
"inactive"

In the following, a different compound is considered.
Which outcome did this test record for the compound COc1ccc(-c2nnc(SCC(=O)Nc3ccc(C(=O)/C=C/c4cc(OC)c(OC)c(OC)c4)cc3)n2-c2ccccc2)cc1OC ? active
